Data origin: ChEMBL document CHEMBL3102693

Tested on: Mycobacterium tuberculosis
PROTOCOL: Antimicrobial activity against Mycobacterium tuberculosis H37Rv after 10 to 14 days by broth microdilution assay
Assay type: functional
QUANTITY: MIC90 (µM)
Field format: number, assumed µM, no unit text.

Problem: Using known records, supply MIC90 for Nc1ncnc2c1ncn2[C@@H]1O[C@H](CNS(=O)(=O)NC(=O)CCCC[C@@H]2SC[C@@H]3NC(=O)N[C@@H]32)[C@@H](O)[C@H]1O
Solution: 0.78

Problem: // Input: Nc1nccc2c1ncn2[C@@H]1O[C@H](COS(=O)(=O)NC(=O)CCCC[C@@H]2SC[C@@H]3NC(=O)N[C@@H]32)[C@@H](O)[C@H]1O . Output its MIC90 only.
Solution: 1.56

Problem: Complete the entry with MIC90 for Nc1ncnc2c1ncn2[C@@H]1O[C@H](CCS(=O)(=O)NC(=O)CCCC[C@@H]2SC[C@@H]3NC(=O)N[C@@H]32)[C@@H](O)[C@H]1O
Solution: 3.12
